// data source = patent US20160100573A1

Test: Spreading of surfactant solutions on polystyrene surface (spread diameter after 30 seconds)
Format: physicochemical
Parameters: unit not given here
Details: 0.2 wt % surfactant (actives) in deionized water
Consider the following compounds; for each one, report its Spread diameter.
Numbers only.

Solved cases (4 shown):
{"columns": ["COMPOUND", "Spread diameter"],
 "data": [
  ["C[N+](C)(CCCO)CC(O)COCCC[Si](C)(C)CC[Si](C)(C)C (centres unmarked) [QC-1]", 33],
  ["C[N+](C)(CCCO)CC(O)COCCC[Si](C)(O[Si](C)(C)C)O[Si](C)(C)C (centres unmarked) [TSQ-1]", 30],
  ["C[N+](C)(CC(O)CO)CC(O)COCCC[Si](C)(C)CC[Si](C)(C)C (centres unmarked) [QC-2]", 23],
  ["CCCC[N+](C)(C)CC(O)COCCC[Si](C)(C)CC[Si](C)(C)C (centres unmarked) [QC-3]", 23]
]}

Proceeding to the next compound to report its Spread diameter.
Entry COCCOCCOCCOCCOCCOCCOCCOCCOCCC[Si](C)(C)CC[Si](C)(C)C [Comparative-A] ; Spread diameter = 54

----------
Test: Spreading of surfactant solutions on polystyrene surface (spread diameter after 30 seconds)
Type: physicochemical
Set-up: unit not given here
Details: 0.1 wt % surfactant (actives) in deionized water
Consider the following compounds; for each one, report its Spread diameter.
One number for each entry.

Solved cases (4 shown):
{"columns": ["COMPOUND", "DATA_VALUE"],
 "data": [
  ["C[N+](C)(CCCO)CC(O)COCCC[Si](C)(O[Si](C)(C)C)O[Si](C)(C)C (centres unmarked)", 15],
  ["C[N+](C)(CCCO)CC(O)COCCC[Si](C)(C)CC[Si](C)(C)C (centres unmarked)", 13],
  ["CCCC[N+](C)(C)CC(O)COCCC[Si](C)(C)CC[Si](C)(C)C (centres unmarked)", 14],
  ["C[N+](C)(CC(O)CO)CC(O)COCCC[Si](C)(C)CC[Si](C)(C)C (centres unmarked)", 10]
]}

Proceeding to the next compound to report its Spread diameter.
Entry "COCCOCCOCCOCCOCCOCCOCCOCCOCCC[Si](C)(C)CC[Si](C)(C)C" ; Spread diameter = 43
